The measured values listed here are drawn from patent US20080300243A1.

molecular target: VR1 (Homo sapiens, UniProt Q8NER1); test: Calcium uptake assay, low pH (proton) stimulus; type: cell-based; parameters: expressed in transfected cells; host or cells: T-REx HEK 293 (Invitrogen), pcDNA5/TO vector; conditions: HEK293; 0.3 μM compound; low pH agonist; HEK 293 cells expressing hVR1; read-out: Low pH % Inhib. @ 0.3 μM
Sequence (Q8NER1 whole entry): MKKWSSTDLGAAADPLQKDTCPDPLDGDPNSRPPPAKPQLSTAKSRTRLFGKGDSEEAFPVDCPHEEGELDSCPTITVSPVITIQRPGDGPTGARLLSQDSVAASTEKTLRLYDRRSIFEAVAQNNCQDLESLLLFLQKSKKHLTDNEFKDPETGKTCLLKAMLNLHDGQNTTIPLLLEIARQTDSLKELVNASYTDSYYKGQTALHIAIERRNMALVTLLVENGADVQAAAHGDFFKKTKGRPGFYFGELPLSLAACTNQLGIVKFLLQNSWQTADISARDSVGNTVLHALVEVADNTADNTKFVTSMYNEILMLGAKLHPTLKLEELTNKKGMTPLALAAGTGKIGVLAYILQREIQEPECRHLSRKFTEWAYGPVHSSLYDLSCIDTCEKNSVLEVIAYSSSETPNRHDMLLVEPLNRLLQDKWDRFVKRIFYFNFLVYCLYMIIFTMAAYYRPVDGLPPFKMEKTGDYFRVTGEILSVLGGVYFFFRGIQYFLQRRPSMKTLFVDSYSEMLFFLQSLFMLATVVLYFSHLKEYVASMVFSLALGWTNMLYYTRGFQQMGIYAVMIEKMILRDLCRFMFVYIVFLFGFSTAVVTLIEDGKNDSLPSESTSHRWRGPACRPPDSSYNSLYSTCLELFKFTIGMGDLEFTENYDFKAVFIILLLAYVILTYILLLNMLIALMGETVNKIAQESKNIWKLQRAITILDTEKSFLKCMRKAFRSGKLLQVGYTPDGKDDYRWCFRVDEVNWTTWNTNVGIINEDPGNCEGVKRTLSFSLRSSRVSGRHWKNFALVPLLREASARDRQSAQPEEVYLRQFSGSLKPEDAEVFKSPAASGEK
property: inhibition at 0.3 µM (%)
Numbers only, in %.

See these solved cases before continuing.
{"compound": "COc1cc(/C=C/C(F)(F)F)ccc1C(=O)Nc1ccc2c(c1)OCCN2", "unit_text": "%", "inhibition at 0.3 µM": 19}
{"compound": "Cc1cc(/C=C/C(F)(F)F)ccc1C(=O)Nc1ccc2c(c1)OCCO2", "unit_text": "%", "inhibition at 0.3 µM": 87}
{"compound": "CN1CCCc2ccc(NC(=O)c3ccc(C#CC(C)(C)C)cc3)cc21", "unit_text": "%", "inhibition at 0.3 µM": 119}
{"compound": "O=C(Nc1ccc2c(c1)OCCN2)c1ccc(/C=C/C(F)(F)F)cc1F", "unit_text": "%", "inhibition at 0.3 µM": 108}
{"compound": "CC(C)(C)C#Cc1ccc(C(=O)Nc2ccc3c(c2)OCCO3)c(F)c1", "unit_text": "%", "inhibition at 0.3 µM": 95}

For the 8 compounds below, give their inhibition at 0.3 µM values.
1. Cc1cc(/C=C/C(F)(F)F)ccc1C(=O)Nc1cnc2c(c1)OCC(CO)N2 (centres unmarked)
2. Cc1cc(C#CC(C)(C)C)ccc1C(=O)Nc1ccc2c(c1)OC[C@@H](CO)N2
3. Cc1cc(C#CC(C)(C)C)ccc1C(=O)Nc1cnc2ccccc2c1
4. CC(C)/C=C/c1ccc(C(=O)Nc2ccc3[nH]ccc3c2)cc1
5. Cc1nc2cc(NC(=O)c3ccc(C#CC(C)(C)C)cc3F)ccc2s1
6. CC(C)(C)C#Cc1cc(F)c(C(=O)Nc2ccc3c(c2)OCC(CO)N3)c(F)c1 (centres unmarked)
7. O=C(Nc1ccc2c(c1)OCC(CO)O2)c1ccc(C#CC2CC2)cc1Cl (centres unmarked)
8. Cc1cc(C#CC2CCCC2)ccc1C(=O)Nc1ccc2c(c1)OCC(CO)O2 (centres unmarked)

[100, 102, 102, 37, 109, 104, 102, 87]

Write down inhibition at 0.3 µM measured for item CC(C)(C)C#Cc1ccc(C(=O)Nc2cnc3ccccc3c2)c(Cl)c1 105
